- run.conditions: in ethanol, 298.17 K
property: solubility (mole fraction)
Numbers only.

Input: Which measured solubility (mole fraction) value corresponds to CS(N)(=O)=O ?
Output: 0.0484

* * *

- run.conditions: in isobutanol, 308.14 K
property: solubility (mole fraction)
Give bare numbers.

Input: Which measured solubility (mole fraction) value corresponds to CS(N)(=O)=O ?
Output: 0.0309

* * *

- run.conditions: in isobutanol, 288.14 K
property: solubility (mole fraction)
Give bare numbers.

Input: Which measured solubility (mole fraction) value corresponds to CS(N)(=O)=O ?
Output: 0.0145

* * *

- run.conditions: in methanol, 313.13 K
property: solubility (mole fraction)
Answers are plain numbers.

Input: Which measured solubility (mole fraction) value corresponds to CS(N)(=O)=O ?
Output: 0.243

* * *

- run.conditions: in sec-butanol, 308.26 K
property: solubility (mole fraction)

Input: Which measured solubility (mole fraction) value corresponds to CS(N)(=O)=O ?
Output: 0.036

* * *

- run.conditions: in n-propyl acetate, 293.26 K
property: solubility (mole fraction)
One number for each entry.

Input: Which measured solubility (mole fraction) value corresponds to CS(N)(=O)=O ?
Output: 0.0141

* * *

- run.conditions: in ethyl acetate, 298.1 K
property: solubility (mole fraction)

Input: Which measured solubility (mole fraction) value corresponds to CS(N)(=O)=O ?
Output: 0.0419

* * *

- run.conditions: in isopentanol, 303.05 K
property: solubility (mole fraction)
Numbers only.

Input: Which measured solubility (mole fraction) value corresponds to CS(N)(=O)=O ?
Output: 0.018

* * *

- run.conditions: in ethanol, 288.18 K
property: solubility (mole fraction)
Give bare numbers.

Input: Which measured solubility (mole fraction) value corresponds to CS(N)(=O)=O ?
Output: 0.0338

* * *

- run.conditions: in ethyl acetate, 313.17 K
property: solubility (mole fraction)
Numbers only.

Input: Which measured solubility (mole fraction) value corresponds to CS(N)(=O)=O ?
Output: 0.0565

* * *

- run.conditions: in methanol, 283.27 K
property: solubility (mole fraction)
One number for each entry.

Input: Which measured solubility (mole fraction) value corresponds to CS(N)(=O)=O ?
Output: 0.0738

* * *

- run.conditions: in ethyl acetate, 323.16 K
property: solubility (mole fraction)
One number for each entry.

Input: Which measured solubility (mole fraction) value corresponds to CS(N)(=O)=O ?
Output: 0.0684

* * *

- run.conditions: in n-propanol, 318.24 K
property: solubility (mole fraction)

Input: Which measured solubility (mole fraction) value corresponds to CS(N)(=O)=O ?
Output: 0.0608

* * *

- run.conditions: in ethyl acetate, 283.26 K
property: solubility (mole fraction)
Numbers only.

Input: Which measured solubility (mole fraction) value corresponds to CS(N)(=O)=O ?
Output: 0.0297

* * *

- run.conditions: in n-pentanol, 293.14 K
property: solubility (mole fraction)
Numbers only.

Input: Which measured solubility (mole fraction) value corresponds to CS(N)(=O)=O ?
Output: 0.00998

* * *

- run.conditions: in ethyl acetate, 293.2 K
property: solubility (mole fraction)
One number for each entry.

Input: Which measured solubility (mole fraction) value corresponds to CS(N)(=O)=O ?
Output: 0.0373

* * *

- run.conditions: in isopentanol, 283.16 K
property: solubility (mole fraction)

Input: Which measured solubility (mole fraction) value corresponds to CS(N)(=O)=O ?
Output: 0.00502

* * *

- run.conditions: in methyl propionate, 283.27 K
property: solubility (mole fraction)
Answers are plain numbers.

Input: Which measured solubility (mole fraction) value corresponds to CS(N)(=O)=O ?
Output: 0.0251

* * *

- run.conditions: in n-pentanol, 288.13 K
property: solubility (mole fraction)
One number for each entry.

Input: Which measured solubility (mole fraction) value corresponds to CS(N)(=O)=O ?
Output: 0.00713

* * *

- run.conditions: in isopropyl acetate, 303.13 K
property: solubility (mole fraction)
One number for each entry.

Input: Which measured solubility (mole fraction) value corresponds to CS(N)(=O)=O ?
Output: 0.0169

* * *

- run.conditions: in isopropyl acetate, 293.16 K
property: solubility (mole fraction)

Input: Which measured solubility (mole fraction) value corresponds to CS(N)(=O)=O ?
Output: 0.0127

* * *

- run.conditions: in n-butanol, 293.18 K
property: solubility (mole fraction)
Give bare numbers.

Input: Which measured solubility (mole fraction) value corresponds to CS(N)(=O)=O ?
Output: 0.015

* * *

- run.conditions: in isopentanol, 293.16 K
property: solubility (mole fraction)
Give bare numbers.

Input: Which measured solubility (mole fraction) value corresponds to CS(N)(=O)=O ?
Output: 0.0108

* * *

- run.conditions: in ethanol, 318.07 K
property: solubility (mole fraction)
Numbers only.

Input: Which measured solubility (mole fraction) value corresponds to CS(N)(=O)=O ?
Output: 0.132

* * *

- run.conditions: in isopropanol, 283.06 K
property: solubility (mole fraction)
Give bare numbers.

Input: Which measured solubility (mole fraction) value corresponds to CS(N)(=O)=O ?
Output: 0.0139

* * *

- run.conditions: in methyl propionate, 288.27 K
property: solubility (mole fraction)
One number for each entry.

Input: Which measured solubility (mole fraction) value corresponds to CS(N)(=O)=O ?
Output: 0.026

* * *

- run.conditions: in ethanol, 308.16 K
property: solubility (mole fraction)
Give bare numbers.

Input: Which measured solubility (mole fraction) value corresponds to CS(N)(=O)=O ?
Output: 0.0792

* * *

- run.conditions: in methanol, 318.1 K
property: solubility (mole fraction)
Give bare numbers.

Input: Which measured solubility (mole fraction) value corresponds to CS(N)(=O)=O ?
Output: 0.286

* * *

- run.conditions: in n-propanol, 303.12 K
property: solubility (mole fraction)

Input: Which measured solubility (mole fraction) value corresponds to CS(N)(=O)=O ?
Output: 0.0296

* * *

- run.conditions: in isopropanol, 303.06 K
property: solubility (mole fraction)
Numbers only.

Input: Which measured solubility (mole fraction) value corresponds to CS(N)(=O)=O ?
Output: 0.0333

* * *

- run.conditions: in n-butanol, 308.06 K
property: solubility (mole fraction)
Numbers only.

Input: Which measured solubility (mole fraction) value corresponds to CS(N)(=O)=O ?
Output: 0.027

* * *

- run.conditions: in sec-butanol, 313.06 K
property: solubility (mole fraction)
One number for each entry.

Input: Which measured solubility (mole fraction) value corresponds to CS(N)(=O)=O ?
Output: 0.0459

* * *

- run.conditions: in ethyl acetate, 288.16 K
property: solubility (mole fraction)
Give bare numbers.

Input: Which measured solubility (mole fraction) value corresponds to CS(N)(=O)=O ?
Output: 0.0329

* * *

- run.conditions: in ethyl acetate, 318.07 K
property: solubility (mole fraction)
One number for each entry.

Input: Which measured solubility (mole fraction) value corresponds to CS(N)(=O)=O ?
Output: 0.0627

* * *

- run.conditions: in ethanol, 283.13 K
property: solubility (mole fraction)
Give bare numbers.

Input: Which measured solubility (mole fraction) value corresponds to CS(N)(=O)=O ?
Output: 0.0265

* * *

- run.conditions: in isopropanol, 298.08 K
property: solubility (mole fraction)
Give bare numbers.

Input: Which measured solubility (mole fraction) value corresponds to CS(N)(=O)=O ?
Output: 0.0277

* * *

- run.conditions: in isopropanol, 313.14 K
property: solubility (mole fraction)
Answers are plain numbers.

Input: Which measured solubility (mole fraction) value corresponds to CS(N)(=O)=O ?
Output: 0.0556

* * *

- run.conditions: in isopropanol, 293.14 K
property: solubility (mole fraction)

Input: Which measured solubility (mole fraction) value corresponds to CS(N)(=O)=O ?
Output: 0.0221

* * *

- run.conditions: in n-propyl acetate, 323.17 K
property: solubility (mole fraction)
Numbers only.

Input: Which measured solubility (mole fraction) value corresponds to CS(N)(=O)=O ?
Output: 0.0322

* * *

- run.conditions: in ethanol, 323.16 K
property: solubility (mole fraction)
One number for each entry.

Input: Which measured solubility (mole fraction) value corresponds to CS(N)(=O)=O ?
Output: 0.181

* * *

- run.conditions: in n-pentanol, 298.12 K
property: solubility (mole fraction)
Answers are plain numbers.

Input: Which measured solubility (mole fraction) value corresponds to CS(N)(=O)=O ?
Output: 0.0156

* * *

- run.conditions: in n-propanol, 293.08 K
property: solubility (mole fraction)
One number for each entry.

Input: Which measured solubility (mole fraction) value corresponds to CS(N)(=O)=O ?
Output: 0.0185

* * *

- run.conditions: in methanol, 308.36 K
property: solubility (mole fraction)
Numbers only.

Input: Which measured solubility (mole fraction) value corresponds to CS(N)(=O)=O ?
Output: 0.2

* * *

- run.conditions: in methanol, 288.1 K
property: solubility (mole fraction)
Give bare numbers.

Input: Which measured solubility (mole fraction) value corresponds to CS(N)(=O)=O ?
Output: 0.0884

* * *

- run.conditions: in isopentanol, 308.06 K
property: solubility (mole fraction)
Give bare numbers.

Input: Which measured solubility (mole fraction) value corresponds to CS(N)(=O)=O ?
Output: 0.0228

* * *

- run.conditions: in n-pentanol, 283.14 K
property: solubility (mole fraction)
Numbers only.

Input: Which measured solubility (mole fraction) value corresponds to CS(N)(=O)=O ?
Output: 0.00546
